measured_on: GST-talin head ΔF1 loop (mouse, UniProt P26039 1-433, lacking residues 133–165)
protocol_summary: pull-down
observed_property: Kd (nM)
// units = nM; emit number, no label

Query: Please supply the value of reported Kd for the item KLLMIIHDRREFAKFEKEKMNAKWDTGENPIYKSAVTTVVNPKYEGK (domain or fragment, UniProt P05556-1 752-798, looked up) [β1A-integrin cytoplasmic tail (recombinant model protein)]
Response: 99
